tgt: AAK1 (121-471) (Homo sapiens, UniProt Q2M2I8)
Sequence (Q2M2I8 46-315 limits assumed): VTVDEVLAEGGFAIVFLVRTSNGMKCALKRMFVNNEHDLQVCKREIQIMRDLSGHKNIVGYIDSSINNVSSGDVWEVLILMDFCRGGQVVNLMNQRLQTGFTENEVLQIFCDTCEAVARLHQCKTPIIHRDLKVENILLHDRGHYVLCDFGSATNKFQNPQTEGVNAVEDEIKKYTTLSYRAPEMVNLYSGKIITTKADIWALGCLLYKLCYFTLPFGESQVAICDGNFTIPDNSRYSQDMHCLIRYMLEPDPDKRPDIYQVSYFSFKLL
run.description: STD-NMR fragment screening, AAK1
Assay type: binding
condition.info: 1 = hit, 0 = no hit
Method: All fragments were stored at −20°C as solids in argon flushed glass bottles. For NMR screening, fragments were weighed and dissolved in DMSO-d6 to a stock concentration of 300 mM. Mother plates were prepared with a 100 mM concentration. […] Fifteen of these compounds contain the same halogen twice. […] As fragment mixtures can lead to competitive effects between their fragments, it is not advised to use the quantification of peak mixtures for hit ranking.
measurement.name: AAK1 (STD-NMR hit flag)

Below, each entry is followed by its recorded AAK1 (STD-NMR hit flag) result.
>>> value_measured("CC(C)c1nsc(Cl)n1")
0
>>> value_measured("CS(=O)(=O)c1ccc(Cl)c(S(C)(=O)=O)c1")
0
>>> value_measured("O=C(O)c1c(I)ccnc1F")
0
>>> value_measured("NC1CCSc2ccc(Cl)cc21 (stereo not drawn)")
0

[in] API: value(readout=AAK1 (STD-NMR hit flag), system=AAK1 (121-471) (Homo sapiens, UniProt Q2M2I8)) for record `Clc1ncnc2[nH]ccc12`
[out] 1

[in] Do the same for `NCc1cc(Cl)c2c(c1)OCCCO2` please
[out] 0

====

tgt: AAK1 (121-471) (Homo sapiens, UniProt Q2M2I8)
run.description: STD-NMR fragment screening, AAK1
Assay type: binding
condition.info: 1 = hit, 0 = no hit
Form field: AAK1 (STD-NMR hit flag) (one value per entry).
The answer should be a number; do not append a unit.

Below, each entry is followed by its recorded AAK1 (STD-NMR hit flag) result.
>>> value_measured("Brc1cncnc1 [Fragment B02289809]")
0
>>> value_measured("O=C(O)c1ncc(Cl)cc1Cl [Fragment B02297418]")
0
>>> value_measured("O=[N+]([O-])c1cnc(Br)[nH]1 [Fragment B02289601]")
1

[in] # query: AAK1 (STD-NMR hit flag) of entry O=C(O)CCc1nc(Br)n[nH]1 [Fragment B02290119]
[out] 0

[in] Do the same for Cn1nc(C(F)(F)F)c(CO)c1Cl [Fragment B02291214] please
[out] 0

[in] Do the same for Nc1ncnc(C(=O)O)c1Cl [Fragment B02290472] please
[out] 0

====

tgt: CAMK1G (1-320) (Homo sapiens, UniProt Q96NX5)
Construct: made in house; host or cells: E. coli BL21 (DE3) pLysS
Sequence (Q96NX5 1-320): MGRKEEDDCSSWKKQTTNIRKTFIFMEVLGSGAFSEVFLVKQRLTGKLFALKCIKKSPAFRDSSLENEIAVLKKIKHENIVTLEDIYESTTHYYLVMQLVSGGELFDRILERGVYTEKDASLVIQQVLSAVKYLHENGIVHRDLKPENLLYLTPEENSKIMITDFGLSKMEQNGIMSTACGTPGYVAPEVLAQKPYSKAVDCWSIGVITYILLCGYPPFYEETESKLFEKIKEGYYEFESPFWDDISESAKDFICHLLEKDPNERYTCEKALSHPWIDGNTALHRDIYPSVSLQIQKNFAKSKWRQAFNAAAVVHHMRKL
run.description: STD-NMR fragment screening, CAMK1G
Type: binding
condition.info: 1 = hit, 0 = no hit
Form field: CAMK1G (STD-NMR hit flag) (one value per entry).
The answer should be a number; do not append a unit.

Below, each entry is followed by its recorded CAMK1G (STD-NMR hit flag) result.
>>> value_measured("Nc1ncnc(Cl)c1Cl [Fragment B02289621]")
1
>>> value_measured("NC(=O)c1cc2c(nc1Cl)CCC2 [Fragment B02291222]")
0
>>> value_measured("Nc1ccc2[nH]cnc2c1Br [Fragment B02297409]")
0
>>> value_measured("Brc1cnc(C2OCCO2)s1 [Fragment B02290407]")
0
>>> value_measured("COCn1nc(Br)nc1C(N)=O [Fragment B02290403]")
0
>>> value_measured("O=C1Nc2c(Cl)cccc2C1=O [Fragment B02290467]")
0
>>> value_measured("O=C(O)c1cncc(Cl)c1 [Fragment B02289604]")
0
>>> value_measured("O=C(c1ccc(Cl)cc1)N1CCOCC1 [Fragment B02297400]")
0
>>> value_measured("Brc1cnc(N2CCNCC2)nc1 [Fragment B02297422]")
1
>>> value_measured("FC(F)(F)c1cnc(Cl)nc1 [Fragment B02294482]")
0

# evaluate next
[in] API: value(readout=CAMK1G (STD-NMR hit flag), system=CAMK1G (1-320) (Homo sapiens, UniProt Q96NX5)) for record OCc1ccc(Cl)nc1 [Fragment B02289606]
[out] 0
